Test system: Fusarium roseum
Condition label: 2.5 μmol/ml, compound in methanol, more than 10 days at 20° C.
Measured Inhibition of the growth of the Fusarium roseum fungi accompanies every entry in the list below.
Endpoint name: Inhibition of the growth of the Fusarium roseum fungi (%)

[
  {
    "Molecule": "CC1OC(NCCCCCNC2OC(C)[C@H](O)C(O)C2O)C(O)C(O)[C@H]1O (stereo partly drawn)",
    "Measurement": 28
  },
  {
    "Molecule": "CCCCCCCCCCCCNC1OC(CO)C(O)C(O)C1O (stereo not drawn)",
    "Measurement": 96
  },
  {
    "Molecule": "CCCCNC1OC(C)[C@H](O)C(O)C1O (stereo partly drawn)",
    "Measurement": 0
  },
  {
    "Molecule": "CCCCCCCCCCCCNCC(O)C(O)C(O)C(C)O (stereo not drawn)",
    "Measurement": 100
  },
  {
    "Molecule": "CCCCCNC1OC(C)[C@H](O)C(O)C1O (stereo partly drawn) [compound Ic]",
    "Measurement": 18
  },
  {
    "Molecule": "CCCCCCCCCCCCNCC(O)C(O)C(O)C(O)CO (stereo not drawn) [compound IIIb]",
    "Measurement": 100
  },
  {
    "Molecule": "CC1OC(NCCCCCCCCCCCCN)C(O)C(O)C1O (stereo not drawn)",
    "Measurement": 34
  },
  {
    "Molecule": "CCCCCCCCCCCCNCC(O)C(O)C(O)C(O)CO (stereo not drawn) [compound IIIc]",
    "Measurement": 100
  },
  {
    "Molecule": "CCCCCNC1OC(C)[C@H](O)C(O)C1O (stereo partly drawn) [compound Ie]",
    "Measurement": 96
  }
]

====

Tested on: Fusarium sambucinum
Condition label: 10 μmol/ml, compound in methanol, more than 10 days at 20° C.
# Inhibition of the growth of the Fusarium sambucinum fungi listing for each entry below
Endpoint name: Inhibition of the growth of the Fusarium sambucinum fungi (%)

[
  {
    "Molecule": "CCCCNC1OC(C)[C@H](O)C(O)C1O (some centres unmarked) [compound Ib]",
    "U": "%",
    "Measurement": 76
  },
  {
    "Molecule": "CC1OC(NCCCCCNC2OC(C)[C@H](O)C(O)C2O)C(O)C(O)[C@H]1O (some centres unmarked) [compound Ih]",
    "U": "%",
    "Measurement": 100
  },
  {
    "Molecule": "CC1OC(NCCCCCCCCCCCCN)C(O)C(O)C1O (centres unmarked) [compound Ii]",
    "U": "%",
    "Measurement": 100
  },
  {
    "Molecule": "CCCCCNC1OC(C)[C@H](O)C(O)C1O (some centres unmarked) [compound Ie]",
    "U": "%",
    "Measurement": 100
  },
  {
    "Molecule": "CCCCCNC1OC(C)[C@H](O)C(O)C1O (some centres unmarked) [compound Ic]",
    "U": "%",
    "Measurement": 90
  }
]

====

Test system: Agrobacterium tumefaciens
Assay details: Antibacterial activity (MIC and MBC) in TY medium
Assay type: cell-based
Condition label: 36 h of culture at 30° C., TY medium
Each entry below carries its recorded MIC.
Endpoint name: MIC (µg/mL)

[
  {
    "Molecule": "CC1OC(NCCCCCNC2OC(C)[C@H](O)C(O)C2O)C(O)C(O)[C@H]1O (some centres unmarked) [compound If]",
    "Endpoint name": "MIC",
    "Value relation sign": ">",
    "Measurement": 500
  },
  {
    "Molecule": "CCCCCCCCCCCCNC1OC(CO)C(O)C(O)C1O (centres unmarked) [compound Ik]",
    "Endpoint name": "MIC",
    "Value relation sign": "=",
    "Measurement": 2
  },
  {
    "Molecule": "CCCCCNC1OC(C)[C@H](O)C(O)C1O (some centres unmarked) [compound Id]",
    "Endpoint name": "MIC",
    "Value relation sign": "=",
    "Measurement": 62.5
  },
  {
    "Molecule": "CCCCCNC1OC(C)[C@H](O)C(O)C1O (some centres unmarked) [compound Ic]",
    "Endpoint name": "MIC",
    "Value relation sign": "=",
    "Measurement": 125
  },
  {
    "Molecule": "CCCCCCCCCCCCNCC(O)C(O)C(O)C(O)CO (centres unmarked) [compound IIIb]",
    "Endpoint name": "MIC",
    "Value relation sign": "=",
    "Measurement": 16
  }
]

# credit: patent US9969762B2
